target.or.test.system: Csk (Homo sapiens)
Construct: GST (glutathione-S-transferase) (N); made in house; host or cells: E. coli (pGEX vector)
assay.remarks: Csk tyrosine kinase activity, poly E4Y and 32P-ATP
Assay type: biochemical
stated.conditions: screening assay, 50 μg/ml poly E4Y, 0.2 mM 32P-ATP
pIC50: −log10 of the molar value.
Measured pIC50 values are reported for all entries that follow.

Below are worked cases with known answers.
> print(dat)
                                   compound  target.or.test.system  reported.measurement
1  Cc1c(-c2cccc(CO)c2)sc2c(NN=Cc3cccs3)ncnc12     Csk (Homo sapiens)                < 3.88
2      COc1cc(C=NNc2ncnc3c(C)csc23)cc(OC)c1     Csk (Homo sapiens)                < 3.82
3                   CCCC=NNc1ncnc2c(C)csc12     Csk (Homo sapiens)                < 3.67
4         Cc1csc2c(NN=Cc3cccc(C#N)c3)ncnc12     Csk (Homo sapiens)                < 3.77
5   Clc1cccc(-c2cc3ncnc(NN=Cc4cccs4)c3s2)c1     Csk (Homo sapiens)                < 3.87
6          COc1ccc(C=NNc2ncnc3c(C)csc23)cc1     Csk (Homo sapiens)                < 3.78

Incoming: Any idea what its pIC50 is? The compound is Clc1ccccc1-c1cc2ncnc(NN=Cc3cccs3)c2s1
Outgoing: < 3.87

Incoming: Now this one: Cc1c(-c2ccccc2Cl)sc2c(NN=Cc3cccnc3)ncnc12
Outgoing: < 3.88

Incoming: Quick one: C(=NNc1ncnc2cc(-c3ccccc3)sc12)c1cccnc1
Outgoing: < 3.82

Incoming: For CCOc1ccc(C=NNc2ncnc3c(C)csc23)cc1 then?
Outgoing: < 3.80

Incoming: Similarly, COc1ccc(-c2sc3c(NN=Cc4cccnc4)ncnc3c2C)cc1 ?
Outgoing: < 3.88

Incoming: Record: CCC=NNc1ncnc2c(C)csc12
Outgoing: < 3.64

----------
The entries below come with measured IC50 values attached.
target.or.test.system: Csk (Homo sapiens, UniProt P41240)
Construct: GST (glutathione-S-transferase) (N); made in house; host or cells: E. coli (pGEX vector)
assay.remarks: Csk tyrosine kinase activity, poly E4Y and 32P-ATP
Format: biochemical
stated.conditions: poly E4Y and 32P-ATP

Incoming: Look up IC50 for this molecule: COc1ccc(C=NNc2ncnc3c(C)c(C(O)c4cc(OC)c(OC)c(OC)c4)sc23)cc1O (centres unmarked)
Outgoing: > 97.9 µM

Incoming: Next entry: COc1cc(C(O)c2sc3c(NN=Cc4cccnc4)ncnc3c2C)cc(OC)c1OC (centres unmarked)
Outgoing: > 107 µM

Incoming: // query: COc1cc(C(O)c2sc3c(NN=Cc4cccs4)ncnc3c2C)cc(OC)c1OC (centres unmarked)
Outgoing: > 106 µM

Incoming: # iterate: COc1ccc(C=NNc2ncnc3c(C)c(C(Cc4ccccc4)c4ccccc4)sc23)cc1O (centres unmarked)
Outgoing: > 101 µM

Incoming: Try the molecule COc1cc(C(O)c2sc3c(NN=Cc4ccc(C(=O)O)cc4)ncnc3c2C)cc(OC)c1OC (centres unmarked)
Outgoing: > 98.3 µM

----------
target.or.test.system: Recombinant human Src (Homo sapiens, UniProt P12931)
Construct: made in house; host or cells: baculovirus-insect cell system
Sequence (P12931 whole entry): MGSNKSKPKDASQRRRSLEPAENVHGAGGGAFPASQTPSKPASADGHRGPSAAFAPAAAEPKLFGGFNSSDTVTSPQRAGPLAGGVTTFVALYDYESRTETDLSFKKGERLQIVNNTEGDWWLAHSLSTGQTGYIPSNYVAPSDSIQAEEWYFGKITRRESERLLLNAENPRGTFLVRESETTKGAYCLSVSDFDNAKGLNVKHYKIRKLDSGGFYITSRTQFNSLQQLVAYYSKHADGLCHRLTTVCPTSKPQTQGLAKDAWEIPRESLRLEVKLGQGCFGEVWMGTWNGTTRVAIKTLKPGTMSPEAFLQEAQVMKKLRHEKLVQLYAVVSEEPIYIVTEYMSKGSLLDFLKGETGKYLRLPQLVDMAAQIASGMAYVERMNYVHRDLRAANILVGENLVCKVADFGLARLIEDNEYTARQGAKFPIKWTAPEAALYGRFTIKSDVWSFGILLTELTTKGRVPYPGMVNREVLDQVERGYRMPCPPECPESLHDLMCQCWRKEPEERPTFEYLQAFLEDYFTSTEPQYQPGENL
assay.remarks: Src tyrosine kinase activity, poly E4Y and 32P-ATP
Format: biochemical
stated.conditions: read-out: IC50 (preferred compounds for treatment of Src family-related disease)
value.type: IC50

Consider the following illustrative entries.
> print(dat)
                                   compound  value.type  reported.measurement
1  Cc1c(C(O)C2CCCCC2)sc2c(NN=Cc3cccs3)ncnc12 (centres unmarked) [Compound 471]        IC50             < 2000 nM
2  Cc1ccc(C=NNc2ncnc3c(C)csc23)s1 [Compound 120]        IC50             < 2000 nM
3  Cc1csc2c(NN=Cc3ccco3)ncnc12 [Compound 31]        IC50             < 2000 nM

Incoming: # returns recorded IC50 (system: Recombinant human Src (Homo sapiens, UniProt P12931)) for COc1ccc(C=NNc2ncnc3c(C)c(I)sc23)cc1O [Compound 375]
Outgoing: < 2000 nM

Incoming: Now the compound COc1ccc(-c2sc3c(NN=Cc4ccc(C(=O)O)cc4)ncnc3c2C)cc1 [Compound 423]
Outgoing: < 2000 nM

----------
target.or.test.system: Recombinant human Src (Homo sapiens)
Construct: made in house; host or cells: baculovirus-insect cell system
assay.remarks: Src tyrosine kinase activity, poly E4Y and 32P-ATP
Format: biochemical
stated.conditions: Table 5; N6 = Src; read-out: N6(Src) IC50
pIC50: −log10 of the molar value.
value.type: pIC50

The cases that follow already have their pIC50 on record.
> print(dat)
                  smiles.string  value.type  reported.measurement
1  Cc1csc2c(NN=Cc3cccnc3)ncnc12       pIC50                  6.43
2   Cc1csc2c(NN=Cc3cccs3)ncnc12       pIC50                  6.02

A: COc1ccc(C=NNc2ncnc3c(C)csc23)cc1O
B: C(=NNc1ncnc2cc(-c3ccccc3)sc12)c1cccnc1
Incoming: Between A and B , which one shows the smaller pIC50 number? In your reply, give the label of the chosen option.
Outgoing: A
(A: 6.29, B: 6.82)

----------
target.or.test.system: Recombinant human Src (Homo sapiens, UniProt P12931)
Construct: made in house; host or cells: baculovirus-insect cell system
assay.remarks: Src tyrosine kinase activity, poly E4Y and 32P-ATP
Format: biochemical
stated.conditions: Table 4; read-out: Src IC50
Procedure: Recombinant human Src was expressed using the baculovirus-insect cell system and purified as published (Budde et al., 1993 and 2000). Recombinant Csk and the FGF receptor (FGFr) were expressed as glutathione-S-transferase fusion proteins using the pGEX expression vector and E. coli, and purified as described (Sun & Budde, 1995). The tyrosine kinase activity of Src, Csk and FGFr was determined using poly E4Y and ^32P-ATP. […]
value.type: IC50 (µM)
Write the value in µM as a bare number.

> print(dat)
                                   compound  measurement.units  reported.measurement
1  CCO.Cc1csc2c(NN=Cc3cccnc3)ncnc12.Cc1csc2c(NN=Cc3cccnc3)ncnc12 [Compound 499]                 µM                   8.6

Continue with the compound presented below.
Incoming: Which IC50 value is on record for CCO.Cc1csc2c(NN=Cc3cccs3)ncnc12.Cc1csc2c(NN=Cc3cccs3)ncnc12 [Compound 501] ?
Outgoing: 10.7

----------
target.or.test.system: N12 neuronal Src variant (Homo sapiens)
Sequence (P12931 1-542 isoform P12931-2): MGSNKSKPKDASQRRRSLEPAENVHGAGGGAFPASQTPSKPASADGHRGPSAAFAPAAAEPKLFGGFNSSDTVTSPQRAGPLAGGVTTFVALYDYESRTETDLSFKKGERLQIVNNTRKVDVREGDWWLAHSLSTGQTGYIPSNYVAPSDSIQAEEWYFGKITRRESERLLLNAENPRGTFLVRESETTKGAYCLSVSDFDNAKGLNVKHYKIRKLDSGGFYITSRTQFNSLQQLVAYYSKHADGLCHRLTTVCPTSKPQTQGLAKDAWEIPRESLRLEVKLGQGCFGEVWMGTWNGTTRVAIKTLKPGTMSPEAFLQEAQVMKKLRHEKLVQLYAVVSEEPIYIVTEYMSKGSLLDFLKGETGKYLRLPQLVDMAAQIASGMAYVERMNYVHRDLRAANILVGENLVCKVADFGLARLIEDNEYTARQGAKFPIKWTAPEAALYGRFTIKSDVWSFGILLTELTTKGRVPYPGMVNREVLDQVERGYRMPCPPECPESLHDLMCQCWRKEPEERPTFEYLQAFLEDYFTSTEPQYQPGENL
assay.remarks: Testing against neuronal Src variant N12
stated.conditions: Table 5
pIC50: −log10 of the molar value.
value.type: pIC50

Worked cases, answers included:
> print(dat)
                  smiles.string                    target.or.test.system  value.type  reported.measurement
1   Cc1csc2c(NN=Cc3cccs3)ncnc12  N12 neuronal Src variant (Homo sapiens)       pIC50                  5.93
2  Cc1csc2c(NN=Cc3cccnc3)ncnc12  N12 neuronal Src variant (Homo sapiens)       pIC50                  6.23

a: C(=NNc1ncnc2cc(-c3ccccc3)sc12)c1cccnc1
b: COc1ccc(C=NNc2ncnc3c(C)csc23)cc1O
Incoming: Quick one: lower pIC50, a or b ? To answer, give the label that identifies your chosen option.
Outgoing: b
(b: 5.76, a: 6.64)

----------
target.or.test.system: Csk (Homo sapiens)
Construct: GST (glutathione-S-transferase) (N); made in house; host or cells: E. coli (pGEX vector)
assay.remarks: Csk tyrosine kinase activity, poly E4Y and 32P-ATP
Format: biochemical
stated.conditions: screening assay, 50 μg/ml poly E4Y, 0.2 mM 32P-ATP
value.type: IC50

Below are worked cases with known answers.
> print(dat)
                                   molecule  reported.measurement
1           Cc1c(I)sc2c(NN=Cc3cccnc3)ncnc12              > 127 µM
2  Cc1c(-c2ccc(CO)cc2)sc2c(NN=Cc3cccs3)ncnc12              > 131 µM
3  Cc1csc2c(NN=Cc3ccc([N+](=O)[O-])cc3)ncnc12              > 160 µM
4  O=C(O)c1ccc(C=NNc2ncnc3cc(-c4ccc(Cl)cc4)sc23)cc1              > 122 µM
5  COc1ccc(C=NNc2ncnc3c(C)c(/C=C/c4ccccc4)sc23)cc1O              > 120 µM

Incoming: # value lookup — system Csk (Homo sapiens), readout IC50, item Cc1csc2c(NN=Cc3ccccc3)ncnc12
Outgoing: > 186 µM

Incoming: Same read-out for Fc1ccc(-c2cc3ncnc(NN=Cc4cccnc4)c3s2)cc1 ?
Outgoing: > 143 µM

Incoming: Now this one: Cc1ccsc1C=NNc1ncnc2c(C)csc12
Outgoing: > 173 µM

Incoming: Further, for Cc1csc2c(NN=Cc3cccs3)ncnc12 ?
Outgoing: > 182 µM

Incoming: Let us now turn to Cc1csc2c(NN=Cc3cccc(O)c3)ncnc12
Outgoing: > 176 µM

Incoming: Again, but for CCCCOc1cccc(C=NNc2ncnc3c(C)csc23)c1
Outgoing: > 147 µM
